Measured pKi on D(3) dopamine receptor (Rattus norvegicus) follows.
Sequence (P19020 whole entry): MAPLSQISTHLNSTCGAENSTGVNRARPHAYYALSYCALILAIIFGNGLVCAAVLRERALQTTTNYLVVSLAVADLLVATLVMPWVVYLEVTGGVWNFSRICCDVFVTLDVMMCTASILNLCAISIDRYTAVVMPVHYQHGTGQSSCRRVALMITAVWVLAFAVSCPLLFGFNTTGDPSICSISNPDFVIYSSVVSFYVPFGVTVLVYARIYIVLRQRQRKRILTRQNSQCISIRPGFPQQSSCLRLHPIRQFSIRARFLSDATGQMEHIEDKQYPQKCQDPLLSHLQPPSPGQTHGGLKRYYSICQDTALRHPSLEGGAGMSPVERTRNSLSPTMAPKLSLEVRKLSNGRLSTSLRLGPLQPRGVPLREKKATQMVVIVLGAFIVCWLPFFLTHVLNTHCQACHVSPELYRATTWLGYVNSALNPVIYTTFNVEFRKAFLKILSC
Give bare numbers, as −log10 of the molar value.

Problem: // fetch pKi given entry "COc1ccccc1N1CCN(CCN2C(=O)CC3(CCCC3)CC2=O)CC1"
Result: 8.51

Problem: // fetch pKi given entry "C[C@H](CN1CCN(c2cc(F)c(F)cc2F)CC1)N1C(=O)CC2(CCCC2)CC1=O"
Result: 6.92

Problem: // fetch pKi given entry "O=C1CC2(CCCC2)CC(=O)N1CCN1CCN(c2cc(F)c(F)cc2F)CC1"
Result: 7.64

// batch mode: one pKi value per listed entry
1. O=C1CC2(CCCC2)CC(=O)N1CCN1CCN(c2ccc(F)cc2)CC1
2. O=C1CC2(CCCC2)CC(=O)N1CCN1CCN(c2ccc(F)c(F)c2)CC1

Result:
1. 7.04
2. 6.80

----------
Biological target: D(2) dopamine receptor (Homo sapiens)
Sequence (P14416 whole entry): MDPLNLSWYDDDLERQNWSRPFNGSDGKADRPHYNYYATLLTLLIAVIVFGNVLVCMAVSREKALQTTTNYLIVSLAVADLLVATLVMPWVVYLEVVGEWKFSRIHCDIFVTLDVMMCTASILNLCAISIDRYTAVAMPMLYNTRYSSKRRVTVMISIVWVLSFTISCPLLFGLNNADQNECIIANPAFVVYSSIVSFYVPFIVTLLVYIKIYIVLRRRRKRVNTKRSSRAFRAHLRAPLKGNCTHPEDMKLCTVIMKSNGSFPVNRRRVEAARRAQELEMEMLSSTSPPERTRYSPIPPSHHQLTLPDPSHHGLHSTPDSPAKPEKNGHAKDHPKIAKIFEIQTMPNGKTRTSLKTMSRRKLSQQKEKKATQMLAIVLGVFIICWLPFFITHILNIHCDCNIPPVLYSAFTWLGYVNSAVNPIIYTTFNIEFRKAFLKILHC
Assay: Binding affinity for human Dopamine receptor D2
pKi: −log10 of the molar value.
Label YES when pKi is at or above 6; anything below gets NO.

Before answering, review these 5 worked examples.
Problem: Say whether "O=C1CC2(CCCC2)CC(=O)N1CCN1CCN(c2ccc(F)c(F)c2)CC1" shows pKi of 6 or more.
Result: NO

Problem: Say whether "O=C1CC2(CCCC2)CC(=O)N1CCN1CCN(c2ccccc2F)CC1" shows pKi of 6 or more.
Result: YES

Problem: Say whether "C[C@H](CN1CCN(c2cc(F)c(F)cc2F)CC1)N1C(=O)CC2(CCCC2)CC1=O" shows pKi of 6 or more.
Result: YES

Problem: Say whether COc1ccccc1N1CCN(CCN2C(=O)CC3(CCCC3)CC2=O)CC1 [BMY-7378] shows pKi of 6 or more.
Result: YES

Problem: Say whether "O=C1CC2(CCCC2)CC(=O)N1CCN1CCN(c2cc(F)ccc2F)CC1" shows pKi of 6 or more.
Result: YES

Next item in the queue.
Problem: Say whether "O=C1CC2(CCCC2)CC(=O)N1CCN1CCN(c2ccc(F)cc2)CC1" shows pKi of 6 or more.
Result: NO

----------
Provide the recorded Ki for the entries that follow.
Molecular target: Alpha-1B adrenergic receptor (Homo sapiens, UniProt P35368)
Sequence (P35368 whole entry): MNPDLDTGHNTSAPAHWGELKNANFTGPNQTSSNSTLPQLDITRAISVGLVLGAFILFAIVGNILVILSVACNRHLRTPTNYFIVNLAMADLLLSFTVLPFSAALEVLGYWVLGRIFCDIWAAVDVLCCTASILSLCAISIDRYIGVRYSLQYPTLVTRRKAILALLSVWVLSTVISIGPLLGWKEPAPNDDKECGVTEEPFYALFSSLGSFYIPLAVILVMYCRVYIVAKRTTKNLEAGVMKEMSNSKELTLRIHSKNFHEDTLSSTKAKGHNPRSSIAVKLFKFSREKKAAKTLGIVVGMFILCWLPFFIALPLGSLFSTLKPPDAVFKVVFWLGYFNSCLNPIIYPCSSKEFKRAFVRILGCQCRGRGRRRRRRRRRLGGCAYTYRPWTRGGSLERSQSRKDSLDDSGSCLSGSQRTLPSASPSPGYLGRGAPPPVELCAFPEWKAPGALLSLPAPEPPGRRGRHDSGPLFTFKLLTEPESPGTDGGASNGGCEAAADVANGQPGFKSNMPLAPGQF
One number for each entry, in nM.

Problem: // fetch Ki given entry "O=C1CC2(CCCC2)CC(=O)N1CCN1CCN(c2ccc(F)cc2F)CC1"
Result: 1100

Please examine the following record next.
Problem: // fetch Ki given entry "O=C1CC2(CCCC2)CC(=O)N1CCN1CCN(c2cc(F)ccc2F)CC1"
Result: 54

The values you see were collected from ChEMBL document CHEMBL1143615.
